# key: entry, value: MIC50
- System: Staphylococcus aureus
- Experimental protocol: Antimicrobial activity against Staphylococcus aureus ATCC 6538 by MTT assay
- Type: functional

In the examples that follow, each entry is paired with its recorded MIC50.
INPUT: Query (compound): CCCCCCCC(=O)OC[C@H]1O[C@@H](n2cnc3c(N)ncnc32)[C@H](O)[C@@H]1O ; field requested: MIC50
OUTPUT: > 100 µg/mL

INPUT: Consider the compound Nc1ncnc2c1ncn2[C@@H]1O[C@H](COC(=O)Cc2cccc(F)c2)[C@@H](O)[C@H]1O and give its measured MIC50.
OUTPUT: 9.2 µg/mL

INPUT: Would you kindly share the measured MIC50 for Nc1ncnc2c1ncn2[C@@H]1O[C@H](COC(=O)Cc2cccc(Cl)c2)[C@@H](O)[C@H]1O ?
OUTPUT: 49.2 µg/mL

Further cases:
INPUT: Reported MIC50, compound Nc1ncnc2c1ncn2[C@@H]1O[C@H](COC(=O)Cc2cccc(O)c2)[C@@H](O)[C@H]1O : ____
OUTPUT: > 100 µg/mL

INPUT: Entry under review: CC1(C)O[C@@H]2[C@H](O1)[C@@H](COC(=O)Cc1ccccc1O)O[C@H]2n1cnc2c(N)ncnc21 . Reported MIC50?
OUTPUT: > 100 µg/mL

INPUT: Quick one: MIC50 of CC1(C)O[C@@H]2[C@H](O1)[C@@H](COC(=O)Cc1ccc(O)cc1)O[C@H]2n1cnc2c(N)ncnc21 ?
OUTPUT: > 100 µg/mL

INPUT: Look at this compound and give its reported MIC50. Nc1ncnc2c1ncn2[C@@H]1O[C@H](COC(=O)c2ccc(Br)cc2)[C@@H](O)[C@H]1O
OUTPUT: > 100 µg/mL

INPUT: Quick check: MIC50 of Nc1ncnc2c1ncn2[C@@H]1O[C@H](COC(=O)Cc2ccc(O)cc2)[C@@H](O)[C@H]1O ?
OUTPUT: 44.3 µg/mL

INPUT: Name the recorded MIC50 for CC1(C)O[C@@H]2[C@H](O1)[C@@H](COC(=O)Cc1ccc(F)cc1)O[C@H]2n1cnc2c(N)ncnc21 .
OUTPUT: > 100 µg/mL

INPUT: Fill in the blank: the reported MIC50 of CC1(C)O[C@@H]2[C@H](O1)[C@@H](COC(=O)Cc1ccccc1F)O[C@H]2n1cnc2c(N)ncnc21 is ____.
OUTPUT: > 100 µg/mL

INPUT: Query (compound): CC1(C)O[C@@H]2[C@H](O1)[C@@H](COC(=O)Cc1ccc(Br)cc1)O[C@H]2n1cnc2c(N)ncnc21 ; field requested: MIC50
OUTPUT: > 100 µg/mL

INPUT: Form field: reported MIC50 of CC1(C)O[C@@H]2[C@H](O1)[C@@H](COC(=O)Cc1cccc(F)c1)O[C@H]2n1cnc2c(N)ncnc21
OUTPUT: > 100 µg/mL

INPUT: Tell me the measured MIC50 of CC1(C)O[C@@H]2[C@H](O1)[C@@H](COC(=O)Cc1cccc(O)c1)O[C@H]2n1cnc2c(N)ncnc21 , please.
OUTPUT: > 100 µg/mL

INPUT: Given the compound Nc1ncnc2c1ncn2[C@@H]1O[C@H](COC(=O)Cc2ccc(Cl)c(Cl)c2)[C@@H](O)[C@H]1O , what is its reported MIC50?
OUTPUT: 48.5 µg/mL

INPUT: Fill in: MIC50 of CC1(C)O[C@@H]2[C@H](O1)[C@@H](COC(=O)Cc1ccc(Cl)c(Cl)c1)O[C@H]2n1cnc2c(N)ncnc21 is ___
OUTPUT: 40.2 µg/mL

INPUT: Need MIC50 of CC1(C)O[C@@H]2[C@H](O1)[C@@H](COC(=O)Cc1cccc(Cl)c1)O[C@H]2n1cnc2c(N)ncnc21 , thanks.
OUTPUT: 44.9 µg/mL
